subject-of-test: T1, DFNB31_3, Q9P202
T1 sequence (Q9P202 811-907, limits assumed, looked up): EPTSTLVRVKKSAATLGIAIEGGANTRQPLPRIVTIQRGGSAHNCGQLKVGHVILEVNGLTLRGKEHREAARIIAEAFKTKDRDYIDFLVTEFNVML
protocol-description: holdup assay
Parameters: key: below the threshold = too weak to quantify, mostly under pKd 3.1 to 4
setup-conditions: plain residues with an end cap or a label only (N-terminal biotin on a linker: ado-ado)
measured-parameter: pKd

{"columns": ["binder", "measured-parameter", "readout-value"],
 "data": [
  ["NNNVVKVDSV [MTNR1A, P48039]", "pKd", 3.93],
  ["PYSESDDDWC [CACNA1A, O00555]", "pKd", 3.6],
  ["KKMLQRRTLL [OR8G1, Q15617]", "pKd", 4.08],
  ["SPDRDRESIV [SCN5A, Q14524]", "pKd", 4.06]
]}

Source listed as paper PMC9482650.
